Provenance of the data: patent US8389509B2

Measured GTPγS S1P3/S1P1 (Method A) accompanies every entry in the list below.
- measuredTarget: S1P1 (Homo sapiens, UniProt P21453)
- Construct: expressed in transfected cells; host or cells: CHO cells
- Sequence (P21453 whole entry): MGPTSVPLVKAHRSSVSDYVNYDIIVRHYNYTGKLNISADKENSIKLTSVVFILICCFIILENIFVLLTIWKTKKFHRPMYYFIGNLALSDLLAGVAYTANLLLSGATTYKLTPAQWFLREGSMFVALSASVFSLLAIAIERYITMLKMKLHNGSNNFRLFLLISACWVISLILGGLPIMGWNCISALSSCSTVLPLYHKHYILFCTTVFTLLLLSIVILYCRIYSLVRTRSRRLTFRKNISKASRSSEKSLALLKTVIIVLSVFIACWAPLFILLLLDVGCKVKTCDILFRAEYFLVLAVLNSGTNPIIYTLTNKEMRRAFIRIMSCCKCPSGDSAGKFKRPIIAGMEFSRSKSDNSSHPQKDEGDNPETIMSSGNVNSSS
- experimentalProtocol: Method A: Receptor [35S] GTPγS Binding Assay, S1P1
- Format: biochemical
- testContext: ratio of S1P3 EC50 to S1P1 EC50, Method A

compound	GTPγS S1P3/S1P1 (Method A)
O=C(O)C1CN(Cc2ccc(-c3noc(-c4cc(-c5ccccc5)c(C(F)(F)F)s4)n3)cc2)C1 [Comp. A, reference compound]	1.2
CCCc1c(-c2nc(-c3ccc(CN4CC(C(=O)O)C4)cc3)no2)cnn1-c1ccccn1 [Example 6]	690
Cc1c(-c2nc(-c3ccc(CN4CC(C(=O)O)C4)cc3)no2)cnn1-c1ccccc1 [Example 5]	50
O=C(O)C1CN(Cc2ccc(-c3noc(-c4cnn(-c5ccccc5)c4-c4cccnc4)n3)cc2)C1 [Example 15]	69

----------
- measuredTarget: S1P3 (Homo sapiens)
- Sequence (Q99500 whole entry): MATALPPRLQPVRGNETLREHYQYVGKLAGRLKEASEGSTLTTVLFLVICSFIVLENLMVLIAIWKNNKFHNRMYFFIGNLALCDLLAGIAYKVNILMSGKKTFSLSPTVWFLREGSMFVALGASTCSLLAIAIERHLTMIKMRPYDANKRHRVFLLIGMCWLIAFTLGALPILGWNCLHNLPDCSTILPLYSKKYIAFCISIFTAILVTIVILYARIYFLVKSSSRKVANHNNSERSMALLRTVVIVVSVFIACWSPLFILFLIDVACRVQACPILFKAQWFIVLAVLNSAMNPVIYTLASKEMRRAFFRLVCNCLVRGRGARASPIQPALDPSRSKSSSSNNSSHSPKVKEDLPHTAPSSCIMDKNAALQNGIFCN
- experimentalProtocol: Method B: Receptor [35S] GTPγS SPA Binding Assay, S1P3
- Format: biochemical
- Set-up: expressed in transfected cells; host or cells: CHO cells
- testContext: S1P3 transfected CHO cell membranes
pEC50: −log10 of the molar value.
observedProperty: pEC50

molecule	dataValue
O=C(O)C1CN(Cc2ccc(-c3noc(-c4cnn(-c5ccccn5)c4C4CCCC4)n3)cc2)C1	6.66
O=C(O)C1CN(Cc2ccc(-c3noc(-c4cnn(-c5ccccc5)c4Cl)n3)cc2)C1	5.70
CCCc1c(-c2nc(-c3ccc(CN4CC(C(=O)O)C4)cc3)no2)cnn1-c1ccccn1	5.89
O=C(O)C1CN(Cc2ccc(-c3noc(-c4cnn(-c5ccccn5)c4-c4ccccc4)n3)cc2)C1	5.96
CCCCNc1c(-c2nc(-c3ccc(CN4CC(C(=O)O)C4)cc3)no2)cnn1-c1ccccc1	7.29
CC(C)CNc1c(-c2nc(-c3ccc(CN4CC(C(=O)O)C4)cc3)no2)cnn1-c1ccccc1	5.01
Cc1c(-c2nc(-c3ccc(CN4CC(C(=O)O)C4)cc3)no2)cnn1C1CCCCC1	6.15
O=C(O)C1CN(Cc2ccc(-c3noc(-c4cnn(-c5ccccn5)c4C(F)(F)F)n3)cc2)C1	5.36
O=C(O)C1CN(Cc2ccc(-c3noc(-c4cnn(-c5ccccc5)c4C(F)(F)F)n3)cc2)C1	5.68
CC(C)Nc1c(-c2nc(-c3ccc(CN4CC(C(=O)O)C4)cc3)no2)cnn1-c1ccccc1	5.77
O=C(O)C1CN(Cc2ccc(-c3noc(-c4cnn(-c5ccccc5)c4-c4cccnc4)n3)cc2)C1	5.39
CCNc1c(-c2nc(-c3ccc(CN4CC(C(=O)O)C4)cc3)no2)cnn1-c1ccccc1	6.40
O=C(O)C1CN(Cc2ccc(-c3noc(-c4cnn(-c5ccccc5)c4Br)n3)cc2)C1	5.15

----------
- measuredTarget: S1P1 (Homo sapiens)
- Construct: expressed in transfected cells; host or cells: CHO cells
- experimentalProtocol: Method B: Receptor [35S] GTPγS SPA Binding Assay, S1P1
- Type: biochemical
- testContext: Method B (SPA), S1P1 transfected CHO cell membranes
Rule for this label: True means EC50 is less than 300 pM; False means EC50 is at least 300 pM.

molecule	label
CC(C)CNc1c(-c2nc(-c3ccc(CN4CC(C(=O)O)C4)cc3)no2)cnn1-c1ccccc1	True
Cc1c(-c2nc(-c3ccc(CN4CC(C(=O)O)C4)cc3)no2)cnn1-c1ccccc1	False
Cc1c(-c2nc(-c3ccc(CN4CC(C(=O)O)C4)cc3)no2)cnn1C1CCCCC1	False
O=C(O)C1CN(Cc2ccc(-c3noc(-c4cnn(-c5ccccc5)c4-c4cccnc4)n3)cc2)C1	False
O=C(O)C1CN(Cc2ccc(-c3noc(-c4cnn(-c5ccccc5)c4C(F)(F)F)n3)cc2)C1	True
O=C(O)C1CN(Cc2ccc(-c3noc(-c4cnn(-c5ccccn5)c4-c4ccccc4)n3)cc2)C1	False
O=C(O)C1CN(Cc2ccc(-c3noc(-c4cnn(-c5ccccc5)c4Br)n3)cc2)C1	False
CCCCNc1c(-c2nc(-c3ccc(CN4CC(C(=O)O)C4)cc3)no2)cnn1-c1ccccc1	True
CC(C)Nc1c(-c2nc(-c3ccc(CN4CC(C(=O)O)C4)cc3)no2)cnn1-c1ccccc1	True

----------
- measuredTarget: S1P1 (Homo sapiens)
- Construct: expressed in transfected cells; host or cells: CHO cells
- experimentalProtocol: Method A: Receptor [35S] GTPγS Binding Assay, S1P1
- Assay type: biochemical
- testContext: Method A, S1P1/CHO cell membranes
pEC50: −log10 of the molar value.
Measured pEC50 accompanies every entry in the list below.
observedProperty: pEC50

molecule	dataValue
CCCc1c(-c2nc(-c3ccc(CN4CC(C(=O)O)C4)cc3)no2)cnn1-c1ccccn1	8.38
Cc1c(-c2nc(-c3ccc(CN4CC(C(=O)O)C4)cc3)no2)cnn1-c1ccccc1	6.59
O=C(O)C1CN(Cc2ccc(-c3noc(-c4cnn(-c5ccccn5)c4C(F)(F)F)n3)cc2)C1	8.54
O=C(O)C1CN(Cc2ccc(-c3noc(-c4cnn(-c5ccccc5)c4-c4cccnc4)n3)cc2)C1	7.28
O=C(O)C1CN(Cc2ccc(-c3noc(-c4cnn(-c5ccccc5)c4C(F)(F)F)n3)cc2)C1	8.72
